# reportedConditions: in toluene, 333.15 K
measuredMetric: solubility (mole fraction)
// return a plain number; no unit text

Exam item: Kindly indicate its recorded solubility (mole fraction). Item: "O=C(O)c1ccco1"
Marked response: 0.056

----------
# reportedConditions: in n-hexane, 308.15 K
measuredMetric: solubility (mole fraction)
// return a plain number; no unit text

Exam item: Kindly indicate its recorded solubility (mole fraction). Item: "O=C(O)c1ccco1"
Marked response: 0.001

----------
# reportedConditions: in methanol, 323.15 K
measuredMetric: solubility (mole fraction)
// return a plain number; no unit text

Exam item: Kindly indicate its recorded solubility (mole fraction). Item: "O=C(O)c1ccco1"
Marked response: 0.571

----------
# reportedConditions: in 1,2-dichloroethane, 303.15 K
measuredMetric: solubility (mole fraction)

Exam item: Kindly indicate its recorded solubility (mole fraction). Item: "O=C(O)c1ccco1"
Marked response: 0.035

----------
# reportedConditions: in acetonitrile, 298.15 K
measuredMetric: solubility (mole fraction)

Exam item: Kindly indicate its recorded solubility (mole fraction). Item: "O=C(O)c1ccco1"
Marked response: 0.077

----------
# reportedConditions: in 1,2-dichloroethane, 323.15 K
measuredMetric: solubility (mole fraction)
// return a plain number; no unit text

Exam item: Kindly indicate its recorded solubility (mole fraction). Item: "O=C(O)c1ccco1"
Marked response: 0.084

----------
# reportedConditions: in methanol, 333.15 K
measuredMetric: solubility (mole fraction)
// return a plain number; no unit text

Exam item: Kindly indicate its recorded solubility (mole fraction). Item: "O=C(O)c1ccco1"
Marked response: 0.643

----------
# reportedConditions: in acetonitrile, 313.15 K
measuredMetric: solubility (mole fraction)

Exam item: Kindly indicate its recorded solubility (mole fraction). Item: "O=C(O)c1ccco1"
Marked response: 0.132

----------
# reportedConditions: in toluene, 308.15 K
measuredMetric: solubility (mole fraction)
// return a plain number; no unit text

Exam item: Kindly indicate its recorded solubility (mole fraction). Item: "O=C(O)c1ccco1"
Marked response: 0.017

----------
# reportedConditions: in acetonitrile, 318.15 K
measuredMetric: solubility (mole fraction)
// return a plain number; no unit text

Exam item: Kindly indicate its recorded solubility (mole fraction). Item: "O=C(O)c1ccco1"
Marked response: 0.155

----------
# reportedConditions: in MIBK, 333.15 K
measuredMetric: solubility (mole fraction)

Exam item: Kindly indicate its recorded solubility (mole fraction). Item: "O=C(O)c1ccco1"
Marked response: 0.286

----------
# reportedConditions: in diisopropyl ether, 293.15 K
measuredMetric: solubility (mole fraction)

Exam item: Kindly indicate its recorded solubility (mole fraction). Item: "O=C(O)c1ccco1"
Marked response: 0.048

----------
# reportedConditions: in MIBK, 298.15 K
measuredMetric: solubility (mole fraction)
// return a plain number; no unit text

Exam item: Kindly indicate its recorded solubility (mole fraction). Item: "O=C(O)c1ccco1"
Marked response: 0.137

----------
# reportedConditions: in methanol, 318.15 K
measuredMetric: solubility (mole fraction)
// return a plain number; no unit text

Exam item: Kindly indicate its recorded solubility (mole fraction). Item: "O=C(O)c1ccco1"
Marked response: 0.551

----------
# reportedConditions: in 1,2-dichloroethane, 308.15 K
measuredMetric: solubility (mole fraction)

Exam item: Kindly indicate its recorded solubility (mole fraction). Item: "O=C(O)c1ccco1"
Marked response: 0.046

----------
# reportedConditions: in 1,2-dichloroethane, 313.15 K
measuredMetric: solubility (mole fraction)

Exam item: Kindly indicate its recorded solubility (mole fraction). Item: "O=C(O)c1ccco1"
Marked response: 0.057
